- tested system: T1, Human Semaphorin3A-Sema Domain, TPP-19068 (human, UniProt Q14563 21-569)
- T1 construct: produced inhouse in HEK293-6E; also called human monovalent Sema3A domain
- T1 sequence: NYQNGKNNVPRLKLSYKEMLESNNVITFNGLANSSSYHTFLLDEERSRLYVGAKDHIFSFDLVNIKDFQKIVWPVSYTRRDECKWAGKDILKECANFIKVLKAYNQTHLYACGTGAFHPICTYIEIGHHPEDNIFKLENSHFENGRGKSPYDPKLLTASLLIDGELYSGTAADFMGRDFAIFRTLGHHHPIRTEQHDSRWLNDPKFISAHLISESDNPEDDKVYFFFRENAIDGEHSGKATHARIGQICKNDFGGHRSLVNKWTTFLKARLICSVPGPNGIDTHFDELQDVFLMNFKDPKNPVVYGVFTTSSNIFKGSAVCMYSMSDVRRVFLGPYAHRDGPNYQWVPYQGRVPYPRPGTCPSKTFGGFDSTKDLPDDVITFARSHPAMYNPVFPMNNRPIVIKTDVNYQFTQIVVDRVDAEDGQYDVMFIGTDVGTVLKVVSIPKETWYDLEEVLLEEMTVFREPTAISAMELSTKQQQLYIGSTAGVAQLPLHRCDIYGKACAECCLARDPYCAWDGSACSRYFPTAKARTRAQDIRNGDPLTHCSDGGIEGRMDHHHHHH
- assay name: SPR, captured antibody, Sema3A domain analyte
- Experimental: To assess the binding kinetics and affinity of anti-Sema3A antibodies as well as their species cross-reactivity profile, binding assays were conducted using surface plasmon resonance (SPR). Binding assays were performed on a Biacore T200 instrument or on a Biacore 8K+ instrument (Cytiva) at 25° C. using assay buffer HBS P+, 300 mM NaCl, 0.75 mM CaCl₂, 2.5 mM MgCl₂, 1 mg/ml BSA, 0.05% NaN₃. […]
readout kind: pKd
Keep it numeric: pKd is minus log10 of the concentration in mol/L.

TPP-18533 (antibody, human IgG1, lambda, V domains shown, IgG1) VH: EVQLLESGGGLVQPGGSLRLSCAASGFTFSSYEMNWVRQAPGKGLEWVSGISWNSGSIGYADSVKGRFTISRDNSKNTLYLQMNSLRAEDTAVYYCARSGYSSSWFDPDFDYWGQGTLVTVSS VL: QSVLTQPPSVSGAPGQRVTISCTGSSSNIGAGYDVHWYQQLPGTAPKLLIYGNSNRPSGVPDRFSGSKSGTSASLAITGLQAEDEADYYCSSYAGSNPYVVFGGGTKLTVLG = 8.06
TPP-25497 (antibody, human IgG1, lambda, V domains shown) VH: EVQLLESGGGLVQPGGSLRLSCAASGFDFDSYEMNWVRQAPGKGLEWVSGISWNSGWIDYADSVKGRFTISRDNSKNTLYLQMNSLRAEDTAVYYCARSGYSSSWFDPDFDYWGQGTLVTVSS VL: QSVLTQPPSVSGAPGQRVTISCTGSSSDIGAGYDVHWYQQLPGTAPKLLIYGNSNRPSGVPDRFSGSKSGTSASLAITGLQAEDEADYYCSSYEGINPYVVFGGGTKLTVLG = 10.28
TPP-25064 (antibody, human IgG1, lambda, V domains shown) VH: EVQLLESGGGLVQPGGSLRLSCAASGFTFDSYEMNWVRQAPGKGLEWVSGISWNSGWIDYADSVKGRFTISRDNSKNTLYLQMNSLRAEDTAVYYCARSGYSSSWFDPDFDYWGQGTLVTVSS VL: QSVLTQPPSVSGAPGQRVTISCTGSSSDIGAGYDVHWYQQLPGTAPKLLIYGNSNRPSGVPDRFSGSKSGTSASLAITGLQAEDEADYYCSSYAGPNPYVVFGGGTKLTVLG = 10.31
TPP-30789 (antibody, human IgG1, kappa, V domains shown, prior art, WO 2020/225400; also called BI clone II; Böhringer (BI) Clone II) VH: EVQLVESGGGLVQPGGSLRLSCAASGFPFSSYYMSWVRQAPGKGLEWVSTIIKSGGYAYYPDSVKDRFTISRDNSKNTLYLQMSSLRAEDTAVYYCVRGGQGAMDYWGQGTTVTVSS VL: EIVLTQSPATLSLSPGERATLSCRASQSIGDYLHWYQQKPGQAPRLLIKYASQSISGIPARFSGSGSGTDFTLTITSLEPEDFAVYYCQQGYSFPYTFGGGTKLEIKR = 10.66

Query: Let me know recorded pKd for TPP-25257 (antibody, human IgG1, lambda, V domains shown) VH: EVQLLESGGGLVQPGGSLRLSCAASGFDFDSYEMNWVRQAPGKGLEWVSGISWNSGWIDYADSVKGRFTISRDNSKNTLYLQMNSLRAEDTAVYYCARSGYSSSWFDPDFDYWGQGTLVTVSS VL: QSVLTQPPSVSGAPGQRVTISCTGSSSNIGAGYDVHWYQQLPGTAPKLLIYGNSNRPSGVPDRFSGSKSGTSASLAITGLQAEDEADYYCQSYAGPNPYVVFGGGTKLTVLG , thanks.
Result: 10.28

Ref: patent US20240254222A1
